Test system: NCI-H1650
protocol description: relative viability (nuclei count vs DMSO), 5 days (fraction); higher = more cells survive
protocol conditions: first compound 0.8 µM
readout label: relative viability

Oc1nc(-c2ccc(C(F)(F)F)cc2)nc2c1CSCC2 [XAV939] + CC(=O)Nc1cccc(-n2c(=O)n(C3CC3)c(=O)c3c(Nc4ccc(I)cc4F)n(C)c(=O)c(C)c32)c1 [Trametinib] (partner 0.02 µM); 0.591
Oc1nc(-c2ccc(C(F)(F)F)cc2)nc2c1CSCC2 [XAV939] + O=C(CCCCCCC(=O)Nc1ccccc1)NO [Vorinostat] (partner 1 µM); 0.391
Oc1nc(-c2ccc(C(F)(F)F)cc2)nc2c1CSCC2 [XAV939] + N=C(N)NC(=N)NCCc1ccccc1 [Phenformin] (partner 250 µM); 0.373
C=C1C(=O)O[C@@H](CCCCCCCC)[C@@H]1C(=O)O [C-75] + CS(=O)(=O)N1CCN(Cc2cc3nc(-c4cccc5[nH]ncc45)nc(N4CCOCC4)c3s2)CC1 [Pictilisib] (partner 1 µM); 0.521
Oc1nc(-c2ccc(C(F)(F)F)cc2)nc2c1CSCC2 [XAV939] + CS(=O)(=O)N1CCN(Cc2cc3nc(-c4cccc5[nH]ncc45)nc(N4CCOCC4)c3s2)CC1 [Pictilisib] (partner 1 µM); 0.49
C=C1C(=O)O[C@@H](CCCCCCCC)[C@@H]1C(=O)O [C-75] + CC1(C)CCC(c2ccc(Cl)cc2)=C(CN2CCN(c3ccc(C(=O)NS(=O)(=O)c4ccc(N[C@H](CCN5CCOCC5)CSc5ccccc5)c(S(=O)(=O)C(F)(F)F)c4)cc3)CC2)C1 [Navitoclax] (partner 0.5 µM); 1.22
Oc1nc(-c2ccc(C(F)(F)F)cc2)nc2c1CSCC2 [XAV939] + Cc1nc(Nc2ncc(C(=O)Nc3c(C)cccc3Cl)s2)cc(N2CCN(CCO)CC2)n1 [Dasatinib] (partner 0.075 µM); 0.263
Oc1nc(-c2ccc(C(F)(F)F)cc2)nc2c1CSCC2 [XAV939] + CC1(C)CCC(c2ccc(Cl)cc2)=C(CN2CCN(c3ccc(C(=O)NS(=O)(=O)c4ccc(N[C@H](CCN5CCOCC5)CSc5ccccc5)c(S(=O)(=O)C(F)(F)F)c4)cc3)CC2)C1 [Navitoclax] (partner 0.5 µM); 1.05
Oc1nc(-c2ccc(C(F)(F)F)cc2)nc2c1CSCC2 [XAV939] + CS(=O)(=O)CCNCc1ccc(-c2ccc3ncnc(Nc4ccc(OCc5cccc(F)c5)c(Cl)c4)c3c2)o1 [Lapatinib] (partner 2 µM); 0.836

---

System: NCI-H2085
protocol description: relative viability (nuclei count vs DMSO), 5 days (fraction); higher = more cells survive
protocol conditions: first compound 0.05 µM
readout label: relative viability

CC1(C)CCC(c2ccc(Cl)cc2)=C(CN2CCN(c3ccc(C(=O)NS(=O)(=O)c4ccc(N[C@H](CCN5CCOCC5)CSc5ccccc5)c(S(=O)(=O)C(F)(F)F)c4)cc3)CC2)C1 [Navitoclax] + CC(=O)Nc1cccc(-n2c(=O)n(C3CC3)c(=O)c3c(Nc4ccc(I)cc4F)n(C)c(=O)c(C)c32)c1 [Trametinib] (partner 0.02 µM); 0.402
CC1(C)CCC(c2ccc(Cl)cc2)=C(CN2CCN(c3ccc(C(=O)NS(=O)(=O)c4ccc(N[C@H](CCN5CCOCC5)CSc5ccccc5)c(S(=O)(=O)C(F)(F)F)c4)cc3)CC2)C1 [Navitoclax] + COc1cc2c(Oc3ccc(NC(=O)C4(C(=O)Nc5ccc(F)cc5)CC4)cc3F)ccnc2cc1OCCCN1CCOCC1 [Foretinib] (partner 0.25 µM); 0.989
CC1(C)CCC(c2ccc(Cl)cc2)=C(CN2CCN(c3ccc(C(=O)NS(=O)(=O)c4ccc(N[C@H](CCN5CCOCC5)CSc5ccccc5)c(S(=O)(=O)C(F)(F)F)c4)cc3)CC2)C1 [Navitoclax] + Nc1nc2[nH]cc(CCc3ccc(C(=O)N[C@@H](CCC(=O)O)C(=O)O)cc3)c2c(=O)[nH]1 [Pemetrexed] (partner 0.2 µM); 0.852
CC1(C)CCC(c2ccc(Cl)cc2)=C(CN2CCN(c3ccc(C(=O)NS(=O)(=O)c4ccc(N[C@H](CCN5CCOCC5)CSc5ccccc5)c(S(=O)(=O)C(F)(F)F)c4)cc3)CC2)C1 [Navitoclax] + CCNC(=O)c1noc(-c2cc(C(C)C)c(O)cc2O)c1-c1ccc(CN2CCOCC2)cc1 [Luminespib] (partner 0.01 µM); 0.484
CC1(C)CCC(c2ccc(Cl)cc2)=C(CN2CCN(c3ccc(C(=O)NS(=O)(=O)c4ccc(N[C@H](CCN5CCOCC5)CSc5ccccc5)c(S(=O)(=O)C(F)(F)F)c4)cc3)CC2)C1 [Navitoclax] + O=C(c1cc(Cc2n[nH]c(=O)c3ccccc23)ccc1F)N1CCN(C(=O)C2CC2)CC1 [Olaparib] (partner 8 µM); 0.596
